Taken from ChEMBL document CHEMBL3137667.

details: human;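 note: steatosis confirmed by histopathology, value is the count of indexed references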
Parameter Hepatotoxicity (steatosis): see the listing below.
Please reply with the value in numeric form only.

COc1cc(C(=S)N2CCOCC2)cc(OC)c1OC    0
Cc1oc(=O)oc1COC(=O)[C@@H]1N2C(=O)[C@@H](NC(=O)[C@H](N)c3ccccc3)[C@H]2SC1(C)C    0
CCOC(=O)OC(C)OC(=O)[C@@H]1N2C(=O)[C@@H](NC(=O)[C@H](N)c3ccccc3)[C@H]2SC1(C)C (stereo partly drawn)    0
CCN(CC)CCn1c(-c2ccccc2)noc1=N    0
CCCCNC(=O)NS(=O)(=O)c1ccc(N)cc1 [CARBUTAMIDE]    0

Which value of Hepatotoxicity (steatosis) has been reported for COc1ccc(C(=O)N2CCN(c3ccc4c(c3)CCC(=O)N4)CC2)cc1OC in the records?
0

Which value of Hepatotoxicity (steatosis) has been reported for OCCN1CCN(CCCN2c3ccccc3Sc3ccc(C(F)(F)F)cc32)CC1 in the records?
0

Which value of Hepatotoxicity (steatosis) has been reported for ClC=C(Cl)Cl in the records?
0

Which value of Hepatotoxicity (steatosis) has been reported for O=C(O)c1cc(-c2ccc(F)cc2F)ccc1O in the records?
0

Which value of Hepatotoxicity (steatosis) has been reported for C=CC(N)CCC(=O)O (stereo not drawn) in the records?
0

Which value of Hepatotoxicity (steatosis) has been reported for COc1ccc2cc([C@H](C)C(=O)O)ccc2c1 in the records?
1

Which value of Hepatotoxicity (steatosis) has been reported for C=C(OC)C(=O)Nc1cc(OC)c(OC)cc1C(=O)O[C@H]1C[C@H](O[C@@H]2C(=O)C(NC(=O)OC)=C3/C(=C\CSSSC)[C@]2(O)C#C/C=C\C#C[C@@H]3O[C@@H]2O[C@H](C)[C@@H](NO[C@H]3C[C@H](O)[C@H](SC)[C@@H](C)O3)[C@H](O)[C@H]2O[C@H]2C[C@H](OC)[C@@H](NC(C)C)CO2)O[C@@H](C)[C@H]1O in the records?
0

Which value of Hepatotoxicity (steatosis) has been reported for Nc1c2c(nc3ccccc13)CCCC2O (stereo not drawn) in the records?
0

Which value of Hepatotoxicity (steatosis) has been reported for Cc1onc(-c2c(F)cccc2Cl)c1C(=O)N[C@@H]1C(=O)N2[C@@H]1SC(C)(C)[C@@H]2C(=O)O in the records?
2
